Target: Mitogen-activated protein kinase 9 (Homo sapiens, UniProt P45984)
Sequence (P45984 whole entry): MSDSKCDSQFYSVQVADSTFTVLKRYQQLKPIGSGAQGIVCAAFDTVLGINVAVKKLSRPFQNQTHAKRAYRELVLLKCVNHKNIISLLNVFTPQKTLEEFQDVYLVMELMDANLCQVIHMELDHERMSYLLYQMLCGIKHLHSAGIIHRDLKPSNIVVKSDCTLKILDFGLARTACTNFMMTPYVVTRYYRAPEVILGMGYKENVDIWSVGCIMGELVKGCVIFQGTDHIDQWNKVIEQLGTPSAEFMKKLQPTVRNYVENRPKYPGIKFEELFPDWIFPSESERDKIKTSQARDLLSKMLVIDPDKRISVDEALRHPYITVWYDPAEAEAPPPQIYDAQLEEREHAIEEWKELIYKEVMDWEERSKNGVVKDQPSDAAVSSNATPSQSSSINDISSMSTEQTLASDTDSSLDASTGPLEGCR
Assay: Inhibition of JNK2 (unknown origin) using biotinylated ATF2 by HTRF method
pIC50: −log10 of the molar value.
The threshold is inclusive: pIC50 of exactly 7 counts as 1; values below receive -1.

Example cases with answers are listed next.
CHEMICAL_STRUCTURE	GROUP
CNC(=O)c1ccccc1Nc1cc(Nc2ccc(N3CCOCC3)cc2OC)ncc1C#N	-1
CNC(=O)c1ccccc1Nc1cc(Nc2ccc(N3CCOCC3)cc2OC)ncc1Cl	1
NC(=O)c1ccccc1Nc1nc(Nc2ccc(N3CCCC3=O)cc2)ncc1Cl	1
COc1ccc(Nc2ncc(Cl)c(Nc3ccccc3C(N)=O)n2)cc1	1
NC(=O)c1ccccc1Nc1ccnc(Nc2ccc(N3CCOCC3)cc2)c1	-1

Let us examine a further case.
Req: Is it the case that COc1cc(N2CCOCC2)ccc1Nc1ncc(Cl)c(Nc2ccccc2C(N)=O)n1 has pIC50 reaching or exceeding 7?
Resp: 1
